Experiment: clinical
Settings: male, human, in vivo, 20 mg
ENDPOINT: Cmax (ng/mL)

1. CCC(C)(C)C(=O)O[C@H]1C[C@@H](C)C=C2C=C[C@H](C)[C@H](CC[C@@H](O)C[C@@H](O)CC(=O)O)[C@H]21 [Simvastatin Acid, simvastatin acid] :: 6.1

###

Assay: clinical
Settings: male, human, in vivo, 10 mg
ENDPOINT: AUC(0-inf) (ng·h/mL)

1) CC(C)n1c(/C=C/C(O)CC(O)CC(=O)O)c(-c2ccc(F)cc2)c2ccccc21 (stereo not shown) :: 37.2

###

Experiment: clinical
Conditions: male, human, in vivo, 25 mg, Tmax (median)
ENDPOINT: Tmax

1) CC(C)n1c(/C=C/C(O)CC(O)CC(=O)O)c(-c2ccc(F)cc2)c2ccccc21 (stereo not shown) [Fluvastatin, fluvastatin] :: ~30 min

###

Assay: Phase 1 pharmacokinetic study of sublingual statin sprays in healthy male subjects
Details: male, human, plasma, 20 mg
ENDPOINT: AUC(0-t) (ng·h/mL)

1. CC[C@H](C)C(=O)O[C@H]1C[C@H](O)C=C2C=C[C@H](C)[C@H](CC[C@@H](O)C[C@@H](O)CC(=O)O)[C@H]21 :: 30

###

Assay: clinical
Conditions: male, human, in vivo, 40 mg
ENDPOINT: half-life (min)

1) CCC(C)(C)C(=O)O[C@H]1C[C@@H](C)C=C2C=C[C@H](C)[C@H](CC[C@@H]3C[C@@H](O)CC(=O)O3)[C@H]21 [Simvastatin, simvastatin] :: 114
2) CC[C@H](C)C(=O)O[C@H]1C[C@H](O)C=C2C=C[C@H](C)[C@H](CC[C@@H](O)C[C@@H](O)CC(=O)O)[C@H]21 [Pravastatin, pravastatin] :: 79.2
3) CCC(C)(C)C(=O)O[C@H]1C[C@@H](C)C=C2C=C[C@H](C)[C@H](CC[C@@H](O)C[C@@H](O)CC(=O)O)[C@H]21 [Simvastatin Acid, simvastatin acid] :: 219

###

Assay: Phase 1 pharmacokinetic study of sublingual statin sprays in healthy male subjects
Settings: male, human, plasma, 40 mg
ENDPOINT: Cmax (ng/mL)

1) CC[C@H](C)C(=O)O[C@H]1C[C@H](O)C=C2C=C[C@H](C)[C@H](CC[C@@H](O)C[C@@H](O)CC(=O)O)[C@H]21 [Pravastatin, pravastatin] :: 44.5

###

Assay: Phase 1 pharmacokinetic study of sublingual statin sprays in healthy male subjects
Settings: male, human, plasma, 40 mg
ENDPOINT: AUC(0-t) (ng·h/mL)

1) CC[C@H](C)C(=O)O[C@H]1C[C@H](O)C=C2C=C[C@H](C)[C@H](CC[C@@H](O)C[C@@H](O)CC(=O)O)[C@H]21 [Pravastatin, pravastatin] :: 78.8

###

Assay: clinical
Settings: male, human, in vivo, 25 mg
ENDPOINT: Cmax (ng/mL)

1) CC(C)n1c(/C=C/C(O)CC(O)CC(=O)O)c(-c2ccc(F)cc2)c2ccccc21 (stereo not shown) [Fluvastatin, fluvastatin] :: 88

###

Assay: Phase 1 pharmacokinetic study of sublingual statin sprays in healthy male subjects
Details: male, human, plasma, 20 mg
ENDPOINT: AUC(0-inf) (ng·h/mL)

1. CC[C@H](C)C(=O)O[C@H]1C[C@H](O)C=C2C=C[C@H](C)[C@H](CC[C@@H](O)C[C@@H](O)CC(=O)O)[C@H]21 [Pravastatin, pravastatin] :: 31.2

###

Recorded measurements of half-life, one per entry
Experiment: clinical
Conditions: male, human, in vivo, 20 mg
ENDPOINT: half-life (h)

1. CCC(C)(C)C(=O)O[C@H]1C[C@@H](C)C=C2C=C[C@H](C)[C@H](CC[C@@H](O)C[C@@H](O)CC(=O)O)[C@H]21 [Simvastatin Acid, simvastatin acid] :: 5.73
2. CC[C@H](C)C(=O)O[C@H]1C[C@H](O)C=C2C=C[C@H](C)[C@H](CC[C@@H](O)C[C@@H](O)CC(=O)O)[C@H]21 [Pravastatin, pravastatin] :: 1.58
3. CCC(C)(C)C(=O)O[C@H]1C[C@@H](C)C=C2C=C[C@H](C)[C@H](CC[C@@H]3C[C@@H](O)CC(=O)O3)[C@H]21 [Simvastatin, simvastatin] :: 1.8

###

Recorded measurements of Vd/F, one per entry
Assay: clinical
Settings: male, human, in vivo, 40 mg
ENDPOINT: Vd/F (L)

1) CCC(C)(C)C(=O)O[C@H]1C[C@@H](C)C=C2C=C[C@H](C)[C@H](CC[C@@H]3C[C@@H](O)CC(=O)O3)[C@H]21 [Simvastatin, simvastatin] :: 2070
2) CCC(C)(C)C(=O)O[C@H]1C[C@@H](C)C=C2C=C[C@H](C)[C@H](CC[C@@H](O)C[C@@H](O)CC(=O)O)[C@H]21 [Simvastatin Acid, simvastatin acid] :: 4760

###

Test: clinical
Settings: male, human, in vivo, 25 mg
ENDPOINT: half-life

1. CC(C)n1c(/C=C/C(O)CC(O)CC(=O)O)c(-c2ccc(F)cc2)c2ccccc21 (stereo not shown) [Fluvastatin, fluvastatin] :: 1.4 h

###

Test: clinical
Conditions: male, human, in vivo, 10 mg, Tmax (median)
ENDPOINT: Tmax

1. CC(C)n1c(/C=C/C(O)CC(O)CC(=O)O)c(-c2ccc(F)cc2)c2ccccc21 (stereo not shown) :: ~30 min

###

Experiment: Phase 1 pharmacokinetic study of sublingual statin sprays in healthy male subjects
Settings: male, human, plasma, 20 mg
ENDPOINT: Cmax (ng/mL)

1. CC[C@H](C)C(=O)O[C@H]1C[C@H](O)C=C2C=C[C@H](C)[C@H](CC[C@@H](O)C[C@@H](O)CC(=O)O)[C@H]21 :: 12.3

###

Assay: clinical
Settings: male, human, in vivo, 10 mg
ENDPOINT: half-life

1) CC(C)n1c(/C=C/C(O)CC(O)CC(=O)O)c(-c2ccc(F)cc2)c2ccccc21 (stereo not shown) :: 1.18 h

###

Assay: clinical
Conditions: male, human, in vivo, 40 mg, Tmax (median)
ENDPOINT: Tmax

1) CCC(C)(C)C(=O)O[C@H]1C[C@@H](C)C=C2C=C[C@H](C)[C@H](CC[C@@H](O)C[C@@H](O)CC(=O)O)[C@H]21 :: 3.88 h
